system: HIV; test: Inhibition of HIV replication in HIV infected human T-lymphoma cells or human fetal lung cells; amount of virus determined by new infection of human fetal lung cells; assay type: cell-based; conditions: Human immunodeficiency virus 1, readout: new infection of human fetal lung cells, read-out: IC50-value (concentration which results in an inhibition of the replication of 50%)
observable: IC50 (µg/mL)
Give the value in µg/mL but do not write µg/mL after it.

Consider the following illustrative entries.
CCCCCCCCCCCCSCC(COP(=O)([O-])OCC[N+](C)(C)C)NC(=O)CCCCCCCCCC (centres unmarked) :: 5
CCCCCCCCCCCCOC(COP(=O)([O-])OCC[N+](C)(C)C)CSCCCCCCCCCCCC (centres unmarked) :: 4

input: Please give the measured IC50 for this compound: CCCCCCCCCCCOC(COP(=O)([O-])OCC[N+](C)(C)C)C[S+]([O-])CCCCCCCCCCC (centres unmarked)
output: 4

input: Try the compound CCCCCCCCCCCCOC(COP(=O)([O-])OCC[N+](C)(C)C)CS(=O)(=O)CCCCCCCCCC (centres unmarked)
output: 2

input: Try the compound CCCCCCCCCCCC[S+]([O-])CC(COP(=O)([O-])OCC[N+](C)(C)C)OCCCCCCCCCC (centres unmarked)
output: 4

input: Try the compound CCCCCCCCCCCCCCCCOC(COP(=O)([O-])OCC[N+](C)(C)C)CSCCCCCCCCCC (centres unmarked)
output: 50

input: Try the compound CCCCCCCCCCCCC[S+]([O-])CC(COP(=O)([O-])OCC[N+](C)(C)C)OCCCCCCCCCC (centres unmarked)
output: 2

input: Try the compound CCCCCCCCCCCCSCC(CSCCCCCCCCCCCC)OP(=O)([O-])OCC[N+](C)(C)C
output: 4
